Every entry's value here was drawn from PubChem BioAssay.

TARGET_OF_ASSAY: Concanavalin-A (Canavalia ensiformis) (UniProt P02866)
Sequence (P02866 whole entry, looked up): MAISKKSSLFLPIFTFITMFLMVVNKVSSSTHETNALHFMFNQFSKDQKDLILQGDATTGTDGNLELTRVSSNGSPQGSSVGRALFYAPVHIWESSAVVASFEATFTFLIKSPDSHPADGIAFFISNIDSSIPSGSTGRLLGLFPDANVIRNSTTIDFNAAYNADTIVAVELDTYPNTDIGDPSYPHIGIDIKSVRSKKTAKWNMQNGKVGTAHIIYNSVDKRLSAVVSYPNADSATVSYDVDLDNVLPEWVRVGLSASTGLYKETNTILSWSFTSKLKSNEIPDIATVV
ASSAY_METHOD_TEXT: ConA small-molecule binders, primary screen, artefact control for SMM control protein annotation, biochemical, small-molecule microarray, Alexa647 label, 635 nm (AID 1127);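 further: z combines 667 nm emission intensity with signal-to-noise across three replicate slides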
EXPERIMENTAL_PARAMETERS: ConA-A647 binding fluorescence, higher = more signal
Tag: criterion met if measured composite z-score is not below -0.003, criterion not met if it is.

Example entries begin here.
{"SMILES_ENTRY": "COc1ccc(O[C@H]2C=C[C@@H](c3ccccc3)O[C@@H]2CON=C2c3cc(OC)ccc3O[C@H](c3cccc(OC)c3)[C@H]2O)cc1", "TARGET_OF_ASSAY": "Concanavalin-A (Canavalia ensiformis) (UniProt P02866)", "CATEGORY": "criterion not met"}
{"SMILES_ENTRY": "CO[C@@H]1COC(=O)[C@@H]2CCCN2C(=O)[C@@H](C)COC(=O)CCC[C@H]1C", "TARGET_OF_ASSAY": "Concanavalin-A (Canavalia ensiformis) (UniProt P02866)", "CATEGORY": "criterion not met"}
{"SMILES_ENTRY": "COc1ccc(-c2cnnc(CCCn3ccnc3-c3ccccc3)n2)cc1", "TARGET_OF_ASSAY": "Concanavalin-A (Canavalia ensiformis) (UniProt P02866)", "CATEGORY": "criterion met"}
{"SMILES_ENTRY": "COC(=O)CC=C[C@@H](C)[C@@H](C=NOC[C@@H](O)COCc1ccco1)OC", "TARGET_OF_ASSAY": "Concanavalin-A (Canavalia ensiformis) (UniProt P02866)", "CATEGORY": "criterion not met"}
{"SMILES_ENTRY": "C#CCCCON=C1C[C@@H](O)[C@@H](O)[C@@H]2[C@@H]3C(=O)N([C@@H](C)c4ccccc4)C(=O)[C@@H]3CC[C@@H]12", "TARGET_OF_ASSAY": "Concanavalin-A (Canavalia ensiformis) (UniProt P02866)", "CATEGORY": "criterion met"}
{"SMILES_ENTRY": "CCOC(=O)NN=C1C[C@@H](O)[C@@H](O)[C@@H]2[C@@H]3C(=O)N(C[C@@H]4CCCO4)C(=O)[C@@H]3CC[C@H]12", "TARGET_OF_ASSAY": "Concanavalin-A (Canavalia ensiformis) (UniProt P02866)", "CATEGORY": "criterion met"}

Item O=C1C2=CC[C@H]3C(=O)N(c4ccc(F)cc4F)C(=O)[C@H]3[C@H]2[C@H](O)[C@@H]2O[C@H]12 with composite z-score of -0.003 or above?
criterion met

Item CON=C(C)CCC(=O)OC[C@H]1O[C@H](C#Cc2ccccc2)C=C[C@@H]1Oc1ccc(C)cc1 with composite z-score of -0.003 or above?
criterion met

###

Test system: Plasmodium falciparum Sir2 (PF13_0152, Sir2A)
ASSAY_METHOD_TEXT: pfSir2 binders on small-molecule microarrays, primary screen, biochemical, small-molecule microarray, 635 nm fluorescence (AID 1098);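 further: score merges spot fluorescence intensity with its signal-to-noise ratio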
EXPERIMENTAL_PARAMETERS: small-molecule microarray binding, fluorescence 635 nm; higher = more signal
Tag: Satisfied if measured composite z-score is not below 0.4, Not satisfied if it is.

Example entries begin here.
{"COMPOUND": "CC(C)=NO[C@H](C)c1cn([C@@H]2COC[C@H]2O)nn1", "CATEGORY": "Satisfied"}
{"COMPOUND": "CCOC(=O)[C@H](CC(C)C)NC(=O)CCC1CC(OC(=O)NCCc2ccc(F)cc2)CC2(CCCC(COC(=O)NCc3cccc4ccccc34)O2)O1 (some centres undefined)", "CATEGORY": "Satisfied"}
{"COMPOUND": "C[C@@H](c1ccccc1)N1C(=O)[C@H]2[C@H]3[C@H](O)[C@H](O)CC(=NOCc4ccccc4)[C@@H]3CC[C@H]2C1=O", "CATEGORY": "Not satisfied"}

Item O=C1CCCC=C1C(O)COCc1ccccc1 (centres undefined) with composite z-score of 0.4 or above?
Not satisfied

Item CON=C(C)CCN1CCCc2nc(C)c(C)cc21 with composite z-score of 0.4 or above?
Satisfied

Item COC(=O)[C@H](C)NC(=O)CCC1CC(OC(=O)NCc2cccc3ccccc23)CC2(CCCC(COC(=O)NCCC(C)C)O2)O1 (some centres undefined) with composite z-score of 0.4 or above?
Satisfied

Item C[C@H]1CC[C@H]2C(=O)OC(COc3ccc(C(C)(C)C)cc3)CN2[C@@H]1c1ccc(Br)cc1 (some centres undefined) with composite z-score of 0.4 or above?
Satisfied

Item CC1(C)O[C@H]2O[C@H]([C@H](O)CON=C3[C@H]4CCn5c(=O)n(-c6ccccc6)c(=O)n5[C@H]4[C@H](O)[C@@H]4O[C@H]34)[C@H](O)[C@H]2O1 with composite z-score of 0.4 or above?
Not satisfied

Item COC(=O)[C@H](C)NC(=O)CCC1CC(OC(=O)NCc2ccc3c(c2)OCO3)CC2(CCCC(COC(=O)NCCC(C)C)O2)O1 (some centres undefined) with composite z-score of 0.4 or above?
Satisfied

Item C=C(C)C(=O)OC[C@H]1CN2[C@@H](CC[C@@H](C)[C@@H]2c2ccc(Br)cc2)C(=O)O1 with composite z-score of 0.4 or above?
Satisfied

Item COC(=O)[C@H](C)NC(=O)CCC1CC(OC(=O)NCc2cccc3ccccc23)CC2(CCCC(COC(=O)NCc3cccc(C(F)(F)F)c3)O2)O1 (some centres undefined) with composite z-score of 0.4 or above?
Satisfied

Item Cc1ccc(C(C)C)n1C(=O)OC(C)(C)C with composite z-score of 0.4 or above?
Not satisfied

Item O=C1C2=CC[C@H]3C(=O)N(C4CCCCC4)C(=O)[C@H]3[C@H]2[C@H](O)[C@@H]2O[C@H]12 with composite z-score of 0.4 or above?
Not satisfied

Item O=C(NN=C1C[C@@H](O)[C@@H](O)[C@@H]2[C@@H]3C(=O)N(Cc4ccccc4)C(=O)[C@@H]3CC[C@H]12)OCc1ccccc1 with composite z-score of 0.4 or above?
Not satisfied

Item COC(=O)CC=C[C@@H](C)[C@@H](C=NOC[C@@H](O)[C@H]1O[C@@H]2OC(C)(C)O[C@@H]2[C@H]1O)OC with composite z-score of 0.4 or above?
Satisfied

###

ASSAY_METHOD_TEXT: binders of probe aFGF2 on microarray, primary screen, stem cell growth factor project, biochemical, small-molecule microarray, fluorescence 635/667 (AID 1067);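 further: measures binding of biotinylated aFGF2 protein to printed compounds on slides; z-score merges feature fluorescence and signal-to-noise across triplicate slides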
EXPERIMENTAL_PARAMETERS: higher = more signal
Known composite z-score of a selection of molecules
// return a plain number; no unit text

Some molecules with recorded composite z-score:
{"MOLECULE": "COc1ccc(O[C@H]2C=C[C@@H](c3ccccc3)O[C@@H]2COC(=O)CCC(C)=NOC[C@@H](O)COCc2ccco2)cc1", "composite z-score": -0.411}
{"MOLECULE": "CO[C@H]1C[C@@H]2C[C@H](O)CC(CC(=O)O[C@@H](C=CCC(C)C)C[C@@H]3CC[C@H](C)[C@@H](C1)O3)O2", "composite z-score": -0.0442}
{"MOLECULE": "CCOC(=O)[C@H](Cc1ccccc1)NC(=O)CCC1CC(OC(=O)NCCc2ccc(F)cc2)CC2(CCCC(COC(=O)NCCOc3ccccc3)O2)O1 (stereo not given in full)", "composite z-score": -0.129}
{"MOLECULE": "CO[C@H]1COC(=O)CC=C[C@H](C)[C@H](OC)COC(=O)[C@@H](C)NC(=O)CC=C[C@@H]1C", "composite z-score": -0.246}

May I ask what composite z-score has been recorded for CCOC(=O)[C@H](Cc1ccccc1)NC(=O)CCC1CC(OC(=O)NCc2cccc3ccccc23)CC2(CCCC(COC(=O)NCC3CCCCC3)O2)O1 (stereo not given in full) ?
-0.154

May I ask what composite z-score has been recorded for C[C@@H](c1ccccc1)N1C(=O)[C@H]2[C@H]3[C@H](O)[C@H](O)CC(=NOCc4ccccc4)[C@@H]3CC[C@H]2C1=O ?
-0.0203

May I ask what composite z-score has been recorded for COC(=O)[C@H](Cc1ccccc1)NC(=O)[C@@H](C)CO ?
-0.0105

May I ask what composite z-score has been recorded for CC(CCN1CCCc2nc(C)c(C)cc21)=NO[C@@H](C)c1cn([C@H](CO)Cc2ccccc2)nn1 ?
-0.0257

###

Known z-score of a selection of compounds
ASSAY_METHOD_TEXT: basal RPMI8226 viability, no added stimulus, profiling panel, cell-based, calcein-AM fluorescence, 48 h, PK04 Diversity Set (AID 1166);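 further: cells grown under basal conditions without added stimulus; test concentration not given here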
EXPERIMENTAL_PARAMETERS: RPMI8226 myeloma viability, higher = more signal
// return a plain number; no unit text

{"COMPOUND": "COC(=O)CC=C1c2ccccc2[C@H](OC)[C@H]1C", "z-score": -1.22}
{"COMPOUND": "CCc1cc2c(nc1CC)CCN(CCC(C)=NOC(C)CN1CCCCc3nc(C)c(C)cc31)C2 (stereo unspecified)", "z-score": -0.51}
{"COMPOUND": "CC(CCN1CCCc2nc(C)c(C)cc21)=NOC[C@@H](C)[C@H](OCc1ccccc1)C(C)C", "z-score": 0.0389}

May I ask what z-score has been recorded for CC(=O)OC[C@H]1O[C@@H](ON=C(C)CCN2CCCCc3nc(C)c(C)cc32)[C@H](OC(C)=O)[C@@H](OC(C)=O)[C@@H]1OC(C)=O ?
-2.19

May I ask what z-score has been recorded for C#CCCCON=C1[C@H]2CCn3c(=O)n(Cc4cc5c(cc4Cl)OCO5)c(=O)n3[C@H]2[C@H](O)[C@@H]2O[C@H]12 ?
0.644

May I ask what z-score has been recorded for CCOC(=O)[C@H](Cc1ccccc1)NC(=O)CCC1CC(OC(=O)NCc2cccc3ccccc23)CC2(CCCC(COC(=O)NCCOc3ccccc3)O2)O1 (stereo partly specified) ?
-0.634
